B1: VENTX (parent)
chain: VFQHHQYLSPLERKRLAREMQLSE

Variants of: B1
Test: protein stability index of a GFP-peptide fusion (GPS, HEK-293T) (PSI 1-6); higher = more stable;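 further: lentivirally expressed fusions sorted by FACS into six bins by GFP to DsRed ratio, PSI derived from sequencing read proportions per bin multiplied by bin number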
Settings: c terminus: a fixed tail appended
observed-property: protein stability index

INSERT INTO assay_data (variant_string, observed_property, measured_value) VALUES
  ('R13G', 'protein stability index', 1.83),
  ('V1P', 'protein stability index', 2.35),
  ('H4W', 'protein stability index', 2.03),
  ('Y7K', 'protein stability index', 2.71),
  ('L8G', 'protein stability index', 2.42),
  ('L11D', 'protein stability index', 2.97),
  ('L8C', 'protein stability index', 2.22),
  ('S23L', 'protein stability index', 2.84),
  ('E12M', 'protein stability index', 2.74),
  ('L22G', 'protein stability index', 1.89),
  ('S9N', 'protein stability index', 2.59),
  ('E12L', 'protein stability index', 2.13),
  ('P10Y', 'protein stability index', 2.54),
  ('S9M', 'protein stability index', 2.33),
  ('E19H', 'protein stability index', 2.17),
  ('K14C', 'protein stability index', 2.98),
  ('R18Q', 'protein stability index', 2.73),
  ('R18C', 'protein stability index', 2.58),
  ('R13K', 'protein stability index', 2.62),
  ('M20A', 'protein stability index', 2.8),
  ('Q21A', 'protein stability index', 2.49),
  ('V1F', 'protein stability index', 2.1),
  ('Q6E', 'protein stability index', 3.66),
  ('R15S', 'protein stability index', 1.97),
  ('Q6N', 'protein stability index', 3.05),
  ('H4G', 'protein stability index', 3.26),
  ('H5R', 'protein stability index', 1.93),
  ('Y7N', 'protein stability index', 2.36),
  ('Q3D', 'protein stability index', 4.04),
  ('P10V', 'protein stability index', 2.63),
  ('A17V', 'protein stability index', 2.14),
  ('L16K', 'protein stability index', 2.52),
  ('L16C', 'protein stability index', 2.62),
  ('E19V', 'protein stability index', 1.91),
  ('F2Y', 'protein stability index', 3.01),
  ('Q21W', 'protein stability index', 2.43),
  ('F2Q', 'protein stability index', 4),
  ('L8Q', 'protein stability index', 2.89),
  ('E19P', 'protein stability index', 2.44),
  ('S23K', 'protein stability index', 2.22),
  ('V1I', 'protein stability index', 2.36),
  ('L16Q', 'protein stability index', 2.7),
  ('Q6K', 'protein stability index', 2.69),
  ('E24C', 'protein stability index', 1.82),
  ('V1M', 'protein stability index', 2.38),
  ('P10I', 'protein stability index', 2.42),
  ('Y7S', 'protein stability index', 2.68),
  ('A17C', 'protein stability index', 1.84),
  ('V1L', 'protein stability index', 3.38),
  ('S9Y', 'protein stability index', 2.21),
  ('S23I', 'protein stability index', 1.97),
  ('Q21H', 'protein stability index', 2.68),
  ('Q6G', 'protein stability index', 2.51),
  ('A17L', 'protein stability index', 2.79),
  ('L16R', 'protein stability index', 2.33),
  ('E12W', 'protein stability index', 1.8),
  ('A17F', 'protein stability index', 2.5),
  ('E24N', 'protein stability index', 2.37),
  ('Q6L', 'protein stability index', 2.02),
  ('H4P', 'protein stability index', 3.27),
  ('H4L', 'protein stability index', 2.89),
  ('S9E', 'protein stability index', 2.86),
  ('R13L', 'protein stability index', 2.66),
  ('L11T', 'protein stability index', 2.93),
  ('H5K', 'protein stability index', 2.94),
  ('E19W', 'protein stability index', 1.91),
  ('L16D', 'protein stability index', 3.03),
  ('L16W', 'protein stability index', 2.01),
  ('E19Q', 'protein stability index', 3.09),
  ('F2W', 'protein stability index', 2.42),
  ('F2A', 'protein stability index', 2.11),
  ('Q3H', 'protein stability index', 2.11),
  ('L11Y', 'protein stability index', 2.66),
  ('L11S', 'protein stability index', 2.64);
